B1: library; a variant is named by its letters at N, in order (parent)
chain: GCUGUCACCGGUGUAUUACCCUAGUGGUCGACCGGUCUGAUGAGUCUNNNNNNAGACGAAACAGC

# Variants of: B1
# Method Description: FACS-Seq fitted mean relative fluorescence mCherry/BFP without ligand (log10 relative fluorescence); ligand: hypoxanthine (xanthine aptamer); higher = higher reporter protein expression
# Measurement Setup: HEK293T, ligand present: no
Would you please tag the item 1 when its FACS-Seq fitted mean (log10) is 0.4 or above, and 0 when it is below?

{"Mut": "AGUUUA", "Label Value": 1}
{"Mut": "CGACAC", "Label Value": 0}
{"Mut": "ACAUUC", "Label Value": 0}
{"Mut": "GCAAUC", "Label Value": 1}
{"Mut": "GAUAAA", "Label Value": 1}
{"Mut": "AAUGGA", "Label Value": 0}
{"Mut": "UGCUGA", "Label Value": 0}
{"Mut": "AAUACC", "Label Value": 1}
{"Mut": "UAUUGG", "Label Value": 1}
{"Mut": "UUGUGG", "Label Value": 1}
{"Mut": "CUGUAU", "Label Value": 1}
{"Mut": "GCUAAU", "Label Value": 1}
{"Mut": "UGCAGU", "Label Value": 0}
{"Mut": "UCAGGG", "Label Value": 1}
{"Mut": "GUGCAA", "Label Value": 0}
{"Mut": "UCUGGG", "Label Value": 0}
{"Mut": "CAGUGU", "Label Value": 1}
{"Mut": "AAAUUC", "Label Value": 1}
{"Mut": "AUUGGU", "Label Value": 0}
{"Mut": "AGGAGC", "Label Value": 1}
{"Mut": "ACCAUA", "Label Value": 0}
{"Mut": "ACAAUG", "Label Value": 0}
{"Mut": "AGUAGU", "Label Value": 0}
{"Mut": "AGGGAG", "Label Value": 0}
{"Mut": "AAGCGU", "Label Value": 0}
{"Mut": "GGAAAA", "Label Value": 0}
{"Mut": "AUCCUG", "Label Value": 0}
{"Mut": "CCAACU", "Label Value": 1}
{"Mut": "CACUAA", "Label Value": 0}
{"Mut": "ACAAGG", "Label Value": 0}
{"Mut": "GAAGGA", "Label Value": 0}
{"Mut": "UGUUUG", "Label Value": 0}
{"Mut": "CAAAAA", "Label Value": 1}
{"Mut": "AUCCAU", "Label Value": 1}
{"Mut": "AUAGGA", "Label Value": 0}
{"Mut": "GUCCAC", "Label Value": 0}
{"Mut": "AAAUGA", "Label Value": 1}
{"Mut": "UUAAAG", "Label Value": 0}
{"Mut": "AACAAU", "Label Value": 1}
{"Mut": "UUAGGC", "Label Value": 0}
{"Mut": "AAUGUA", "Label Value": 0}
{"Mut": "GGUAAC", "Label Value": 1}
{"Mut": "GCGUAG", "Label Value": 0}
{"Mut": "CAAGCA", "Label Value": 1}
